For each of the molecules below, state its inhibition.
system: HCV core protein (residues 1-106) dimerization; experiment: blockers of core106 self-association – biochemical, TR-FRET, high-throughput, primary screen (AID 1899); details: TR-FRET GST/Flag-core106 dimerization, 1536-well; at 5 µM; stronger effect = higher value
In all, about 300,000 compounds went through this assay and about 1,000 (0.33%) were called active. Only a selection was taken, and actives are over-represented in it overall.

1. Cc1nn(CC(=O)N/N=C/c2ccc(F)cc2)c(C)c1[N+](=O)[O-] = -5.44% (inactive)
2. CC(C)(C)n1nnnc1C(c1ccccc1F)N1CCN(C(=O)c2ccco2)CC1 (stereo not given) = -2.83% (inactive)
3. O=C(Nc1ccc(S(=O)(=O)Nc2nccs2)cc1)c1cc(=O)[nH]c2ccccc12 = 2.23% (inactive)
4. COc1cc(/C=N/NC(=O)c2cc(C)n(-c3ccc(F)cc3)c2C)cc(OC)c1O = 4.09% (inactive)
5. Cc1cc(C(=O)N/N=C/c2ccc(O)c([N+](=O)[O-])c2)c(C)n1-c1ccc(F)cc1 = 70.4% (active)

Dear colleague, could you please provide inhibition for the molecules listed below?
1. Cc1ccc2nc(-c3ccncc3)cc(C(=O)Nc3ccncc3)c2c1
2. Cc1ccc(/C=N/NC(=O)COc2ccccc2-c2ccccc2)cc1
3. CN1C(=O)/C(=C/c2ccco2)SC1=Nc1cccc(C(=O)O)c1

Result:
8.74% (inactive)
-1.07% (inactive)
1.21% (inactive)

Dear colleague, could you please provide inhibition for the molecules listed below?
1. c1ccc(CSc2nnc(-c3ccco3)c(-c3ccco3)n2)cc1
2. Cc1ccc(N=C2NC(=O)/C(=C/C=C/c3ccco3)S2)cc1C

Result:
["63.8% (active)", "61.8% (active)"]

---

test system: HCV core protein (residues 1-106) dimerization; assay: blockers of core106 self-association – biochemical, TR-FRET, high-throughput, primary screen (AID 1899); conditions: TR-FRET GST/Flag-core106 dimerization, 1536-well; at 5 µM; stronger effect = higher value
Among all 300,000 compounds or so, about 1,000 (0.33%) were called active. The list comes from a sample in which actives are over-represented; it also holds close analogues and randomly drawn compounds.
Quantity measured: inhibition (%)
Answers are plain numbers, in %.

1) COc1ccc(/C=N/NC(=O)c2ccc(Cl)cc2)cc1COC(C)=O = -6.24
2) COc1ccc(NC(=O)c2cc(-c3cc(OC)c(OC)c(OC)c3)nc3ccccc23)c(OC)c1 = -2.9
3) COc1ccc(NC(=O)CCNC(=O)Cn2ccc3ccccc3c2=O)c(OC)c1 = -5.48
4) CC(c1ccco1)N(C(=O)c1ccc(S(=O)(=O)N2CCCCC2)cc1)c1ccccn1 (stereo unspecified) = -1.02
5) CN(CCC(=O)Nc1cc(S(=O)(=O)N(C)C)ccc1Cl)CC(=O)Nc1ccc(F)cc1 = -16.6

Dear colleague, could you please provide inhibition for the compounds listed below?
1. Nc1nc(O)c(CC(=O)O)s1
2. COc1ccc(N2CCN(C(=O)CSc3nc4cc(OC)c(OC)cc4cc3C#N)CC2)cc1
3. COc1cccc2c(C)c(C(=O)O)[nH]c12
4. Cc1nnc(SC(C(=O)Nc2cc(Cl)cc(Cl)c2)c2ccccc2)[nH]c1=O (stereo unspecified)
5. Cc1ccc(CN(N=Nc2nonc2N)c2nonc2N)c(C)c1
6. COc1cc(-c2cc(C(=O)OCC(=O)Nc3ccc4c(c3)OCO4)c3ccccc3n2)cc(OC)c1OC
7. Cc1ccc(C)c(NS(=O)(=O)c2c(C)[nH]c(C)c2C(=O)N2CCCCC2)c1

Result:
[-10.1, 53.1, 52.9, 4.94, 0.98, 46.1, -13.2]

Dear colleague, could you please provide inhibition for the compounds listed below?
1. COc1cc(OC)c(C(=S)N2CCCC2)cc1OC
2. CSc1ccc(-c2c(C#N)c(N)nc3c2c(C)nn3-c2ccccc2)cc1

Result:
1: 4.43; 2: 49.1

Dear colleague, could you please provide inhibition for the compounds listed below?
1. O=C(CCCN1C(=O)/C(=C\c2ccccc2)SC1=S)Nc1ccccc1O
2. COc1cccc(OCc2cc(/C=N/NC(=O)c3nc(Cl)c(Cl)c(N)c3Cl)ccc2OC)c1
3. CCOc1ccc(C(=O)NC(=S)Nc2ccc(N3CCOCC3)c(Cl)c2)cc1[N+](=O)[O-]
4. COc1ccc(NC(=O)Cn2ncn3c(cc4ccccc43)c2=O)c(OC)c1OC
5. CN1/C(=c2/s/c(=C3/C(=O)N(c4ccccc4)NC3=Nc3ccccc3)n(C)c2=O)C(C)(C)c2ccccc21
6. Cc1c(C(=O)N/N=C/c2ccccc2)[nH]c2c([N+](=O)[O-])cccc12

Result:
1. 1.56
2. 58.9
3. 15.3
4. 50.6
5. 21.6
6. 2.99

Query: Observed inhibition on HCV core protein (residues 1-106) dimerization for CNC(=O)COC(=O)c1cc(-c2ccc(OC)cc2)nc2ccccc12 , please.
Result: 0.09
